Values were extracted from patent US20220204611A1.

Biological target: T1, human TREM2 (human, UniProt Q9NZC2 19-174, limits assumed)
T1 sequence: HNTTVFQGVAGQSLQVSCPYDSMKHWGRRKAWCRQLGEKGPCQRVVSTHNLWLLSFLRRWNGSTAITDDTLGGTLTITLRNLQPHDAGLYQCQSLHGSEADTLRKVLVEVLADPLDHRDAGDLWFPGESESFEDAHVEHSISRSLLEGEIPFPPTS
Assay: yeast-displayed Fab FACS, 1st screen 10 nM
Endpoint Name: binding signal fold over 6E7 parental (fold)
One number for each entry, in fold.

V60 (Fab, V domains shown) VH: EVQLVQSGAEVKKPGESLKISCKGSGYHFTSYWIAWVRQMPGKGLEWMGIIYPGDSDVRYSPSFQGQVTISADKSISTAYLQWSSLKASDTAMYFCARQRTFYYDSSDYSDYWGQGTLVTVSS VL: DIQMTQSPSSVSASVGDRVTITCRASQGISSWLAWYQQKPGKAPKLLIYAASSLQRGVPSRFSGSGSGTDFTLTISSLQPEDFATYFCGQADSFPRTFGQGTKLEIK: 3.26

Please go through the list and note binding signal fold over 6E7 parental for each binder.
1. V51 (Fab, V domains shown) VH: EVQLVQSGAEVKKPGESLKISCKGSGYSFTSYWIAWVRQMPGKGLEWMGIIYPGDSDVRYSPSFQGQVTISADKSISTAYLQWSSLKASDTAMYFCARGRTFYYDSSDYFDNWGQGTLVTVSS VL: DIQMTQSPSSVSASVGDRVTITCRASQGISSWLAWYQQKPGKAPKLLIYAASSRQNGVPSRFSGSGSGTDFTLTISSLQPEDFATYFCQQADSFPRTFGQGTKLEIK
2. V72 (Fab, V domains shown) VH: EVQLVQSGAEVKKPGESLKISCKGSGYSFTSYWIGWVRQMPGKGLEWMGIIYPGDSDTRYSPSFQGQVTISADKSISTAYLQWSSLKASDTAMYFCARGRTFYYDSSDYFDYWGQGTLVTVSS VL: DIQMTQSPSSVSASVGDRVTITCRASQGISSWLAWYQQKPGKAPKLLIYAASSLVNGVPSRFSGSGSGTDFTLTISSLQPEDFATYFCQQADSYPRTFGQGTKLEIK
3. V4 (Fab, V domains shown) VH: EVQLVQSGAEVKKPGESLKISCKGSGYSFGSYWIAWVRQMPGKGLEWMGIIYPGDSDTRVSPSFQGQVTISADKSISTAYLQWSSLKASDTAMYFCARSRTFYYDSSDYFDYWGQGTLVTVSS VL: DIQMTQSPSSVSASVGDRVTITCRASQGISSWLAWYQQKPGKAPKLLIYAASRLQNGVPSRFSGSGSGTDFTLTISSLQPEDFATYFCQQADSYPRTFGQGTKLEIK
4. V49 (Fab, V domains shown) VH: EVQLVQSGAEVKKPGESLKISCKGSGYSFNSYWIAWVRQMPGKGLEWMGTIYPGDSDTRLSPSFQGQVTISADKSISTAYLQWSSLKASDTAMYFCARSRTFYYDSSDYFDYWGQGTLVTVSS VL: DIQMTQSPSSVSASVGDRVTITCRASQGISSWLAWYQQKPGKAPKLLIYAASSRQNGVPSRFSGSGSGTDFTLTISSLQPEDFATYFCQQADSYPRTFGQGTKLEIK
5. V3 (Fab, V domains shown) VH: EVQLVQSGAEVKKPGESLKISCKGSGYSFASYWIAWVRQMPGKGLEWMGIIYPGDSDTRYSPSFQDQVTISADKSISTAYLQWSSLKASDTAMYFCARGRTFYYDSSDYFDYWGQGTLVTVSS VL: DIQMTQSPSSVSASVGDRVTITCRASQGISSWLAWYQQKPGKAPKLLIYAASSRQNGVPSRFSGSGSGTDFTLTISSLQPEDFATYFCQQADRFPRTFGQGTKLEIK
6. V85 (Fab, V domains shown) VH: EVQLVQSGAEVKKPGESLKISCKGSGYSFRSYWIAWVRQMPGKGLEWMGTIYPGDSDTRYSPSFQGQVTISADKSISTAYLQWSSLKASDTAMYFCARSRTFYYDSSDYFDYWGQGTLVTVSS VL: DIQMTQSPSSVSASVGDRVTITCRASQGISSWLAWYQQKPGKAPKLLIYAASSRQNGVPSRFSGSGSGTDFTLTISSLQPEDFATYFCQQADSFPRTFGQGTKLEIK

Output line:
[2.81, 3.64, 6, 6.51, 1.97, 5.41]
